- Test system: human body louse (Pediculus humanus)
- experimentSummary: LC50 tests against the human body louse
- condition: read-out: LC50 value; tests against lice (Pediculus humanus)
Overview of reported LC50 across a group of molecules:
Answer in mM, number only, no unit symbol.

Report the value of LC50 obtained on human body louse (Pediculus humanus) for CCCCCCCCCCO [1-Decanol] . 35

Others:
Report the value of LC50 obtained on human body louse (Pediculus humanus) for CCCCCCCC(CC)CCO (centres unmarked) [3-Ethyl-1-decanol] . 62

Report the value of LC50 obtained on human body louse (Pediculus humanus) for CCCCCCCCC(CCCCCCC)C(O)CO (centres unmarked) [3-Octyl-1,2-decanediol] . 97

Report the value of LC50 obtained on human body louse (Pediculus humanus) for C=CCCCCCCCCO [9-Decene-1-ol] . 33

Report the value of LC50 obtained on human body louse (Pediculus humanus) for CCCCCCCCC(C)O (centres unmarked) [2-Decanol] . 37

Report the value of LC50 obtained on human body louse (Pediculus humanus) for CCCCCCCCC(O)CO (racemic) [1,2-Decanediol] . 12

Report the value of LC50 obtained on human body louse (Pediculus humanus) for CCCCCCC(O)CO (centres unmarked) [1,2-Octanediol] . 40

Report the value of LC50 obtained on human body louse (Pediculus humanus) for CCCCCCCC(O)CCO (centres unmarked) [1,3-Decanediol] . 40

====

- System: human body louse (Pediculus humanus)
- experimentSummary: LC50 tests against the human body louse
- condition: LC50 value compared with that of 1,2-decanediol (=100%)
Values of Potency index strictly less than 10% map to label 1, and values of at least 10% map to label 0.

Below are worked cases with known answers.
Lab log: compare recorded Potency index with 10%; is it strictly lower for CCCCCCC(O)CCC (stereo not shown) ? label 1

Lab log: compare recorded Potency index with 10%; is it strictly lower for CCCCC(CC)CO (stereo not shown) ? label 1

Lab log: compare recorded Potency index with 10%; is it strictly lower for CCCCCCCCC(CCCCCCC)C(O)CO (stereo not shown) ? label 0

Lab log: compare recorded Potency index with 10%; is it strictly lower for CCCCCCCCC(C)O (stereo not shown) ? label 0

Lab log: compare recorded Potency index with 10%; is it strictly lower for CCCCCCCCC(O)CO (racemic) ? label 0

Lab log: compare recorded Potency index with 10%; is it strictly lower for CCCCCCCC(O)CCO (stereo not shown) ? label 0

Lab log: compare recorded Potency index with 10%; is it strictly lower for CCCCCCCCCCO ? label 0

Please find the next compound below.
Lab log: compare recorded Potency index with 10%; is it strictly lower for CCCCCCCC(CC)CCO (stereo not shown) ? label 0

====

- Test system: human body louse (Pediculus humanus)
- condition: in vivo
quantityMeasured: LC50 (mM)
Answer in mM, number only, no unit symbol.

Return the recorded LC50 value; entry: CCCC(O)C(CC)CO (stereo not shown) [2-Ethyl-1,3-hexanediol] 60

====

- System: human body louse (Pediculus humanus)
- experimentSummary: LC50 tests against the human body louse
- condition: tests against lice (Pediculus humanus)
quantityMeasured: LC50 value

As a guide, the following entries are already answered.
Report the value of LC50 value obtained on human body louse (Pediculus humanus) for CCCCCCCC(CC)C(O)CO (stereo not shown) . Not calculable

Report the value of LC50 value obtained on human body louse (Pediculus humanus) for CC(O)CCO (stereo not shown) . >2000 mmol

Report the value of LC50 value obtained on human body louse (Pediculus humanus) for CC(O)CCC(C)O (stereo not shown) . Not calculable

Report the value of LC50 value obtained on human body louse (Pediculus humanus) for CCCCC(O)CO (stereo not shown) . >200 mmol

Report the value of LC50 value obtained on human body louse (Pediculus humanus) for CCCCCCC(O)CCC (stereo not shown) . 183 mmol

Others:
Report the value of LC50 value obtained on human body louse (Pediculus humanus) for CCCCCC(O)CCO (stereo not shown) . >400 mmol

Report the value of LC50 value obtained on human body louse (Pediculus humanus) for OCCCCC(O)CO (stereo not shown) . Not calculable

Report the value of LC50 value obtained on human body louse (Pediculus humanus) for CCC(O)CO (stereo not shown) . >700 mmol

Report the value of LC50 value obtained on human body louse (Pediculus humanus) for CCCC(O)C(O)CO (stereo not shown) . Not calculable

Report the value of LC50 value obtained on human body louse (Pediculus humanus) for CC(O)CCCCO (stereo not shown) . Not calculable

====

Overview of reported Potency index across a group of compounds:
- System: human body louse (Pediculus humanus)
- experimentSummary: LC50 tests against the human body louse
- condition: LC50 value compared with that of 1,2-decanediol (=100%)
Answer in %, number only, no unit symbol.

As a guide, the following entries are already answered.
Return the recorded Potency index value; entry: CCCC(O)C(CC)CO (centres unmarked) 20

Return the recorded Potency index value; entry: CCCCCCC(O)CO (centres unmarked) 30

Return the recorded Potency index value; entry: CCCCC(O)CO (centres unmarked) 6

Pending compound:
Return the recorded Potency index value; entry: C=CCCCCCCCCO 36
